- System: SR
- protocolNotes: NCI tumour cell line growth inhibition, 48 h
The source made the active and inactive calls. No stated cut-off is given here; in the data, active = GI50 up to about 1.1 µM and inactive = higher.
I'd appreciate it if you could supply GI50 values for the items below.

In the examples that follow, each entry is paired with its recorded GI50.
COc1ccc(C2CC(c3ccccc3)=Nc3c(-c4ccccc4)nnn32)cc1 (stereo not given)
23.3 µM (inactive)
O=C1O[C@H](c2ccccc2)[C@@H]2CC3(CCN12)OCCO3
> 100 µM (inactive)
CC(=O)Oc1cc(C)c(OC(C)=O)c2c1[C@H]1CC[C@]3(C)[C@@H](OC(C)=O)CC[C@H]3[C@@H]1CC2
29.8 µM (inactive)
COc1cc(CC(C)=O)cc(OC)c1
26.6 µM (inactive)

Now for another entry.
The compound listed as CC1(C)CC[C@]2(C(=O)O)CC[C@]3(C)C(=CC[C@@H]4[C@@]5(C)CC[C@H](OC6OC(C(=O)O)C(O)C(O)C6O)C(C)(C)[C@@H]5CC[C@]43C)[C@@H]2C1 (stereo not given in full) has a reported GI50 of 15 µM (inactive)

---

- System: T47D
- protocolNotes: NCI tumour cell line growth inhibition, 48 h
The source made the active and inactive calls. Cut-off read from the data, not from the text of the source: active = GI50 up to about 1.1 µM and inactive = higher.
quantityKind: GI50

Example cases with answers are listed next.
C=CCCON(C(=O)OC(C)(C)C)c1ccccc1
95.1 µM (inactive)
CCCCNC(=S)Nc1nc(C(=O)NNC(=S)NCc2ccccc2)cs1
13.2 µM (inactive)
O=C(O/N=c1/ccc(=O)/c(=N\OC(=O)c2ccccc2)c1=O)c1ccccc1
> 100 µM (inactive)
CCOC(=O)Cn1nnc2ccc(Nc3nc4ccccc4nc3-c3ccccc3)cc21
> 100 µM (inactive)

Hey, can you go through the list below and give me GI50 for every item?
1. O=C(NC(C(F)(F)F)(C(F)(F)F)P(=O)(c1ccccc1)c1ccccc1)C(C(F)(F)F)C(F)(F)F
2. OC(c1ccccc1)C(F)(F)c1nc2ccccc2o1 (stereo unspecified)

Reply:
["> 100 µM (inactive)", "55.3 µM (inactive)"]

---

- System: T47D
- protocolNotes: NCI tumour cell line growth inhibition, 48 h
Active and inactive are the calls of the source. Cut-off read from the data, not from the text of the source: active = GI50 up to about 1.1 µM and inactive = higher.
Write down one outcome, taken from 1 = active, 0 = inactive

Some entries whose results are on file:
CCc1c(C)c(C#N)c(=S)n(C2OC(COC(C)=O)C(OC(C)=O)C(OC(C)=O)C2OC(C)=O)c1C (stereo not drawn)
0
C/C(=N\NC(=O)c1ccc(Cl)cc1)c1nc2cccnc2[nH]1
0
OC1CCCN(C2(c3cccs3)CCCCC2)C1 (stereo not drawn)
0
CCOC(=O)C1CN(C2CC2)CCC1=O (stereo not drawn)
0
Cc1cc(CN2CCCCC2)c(O)c(CN2CCCCC2)c1
0
COc1ccccc1NC1=NCC(C)S1 (stereo not drawn)
0
N/N=C(\C(=O)Nc1ccc([N+](=O)[O-])cc1)C(C1=Nc2cc([N+](=O)[O-])ccc2NC1)[N+](=O)[O-] (stereo not drawn)
0
Cn1c(=O)c2nc(SCCN3CCOCC3)[nH]c2n(C)c1=S
0
N=C(N)NS(=O)(=O)c1ccc(NNc2c3ccccc3nc3ccccc23)cc1
0
OC(C1CCCC1=N/N=C1/CCCC1C(O)(C(F)(F)Cl)C(F)(F)Cl)(C(F)(F)Cl)C(F)(F)Cl (stereo not drawn)
0

Query: Assay result, entry O=C(O)CN1CCNCCN(CP(=O)(O)O)CC1 — outcome?
Reply: 0

Query: Could you kindly confirm the outcome this assay logged for O=C1/C(=C/C=C/c2ccccc2)CCC1CNc1ccccc1 (stereo not drawn) ?
Reply: 0

Query: Please let me know the test result on file for COC(=O)N[C@H](C(=O)NC(OCc1ccccc1)C1COC(C)(C)O1)C(C)O[Si](C)(C)C(C)(C)C (stereo partly drawn) .
Reply: 0
